Attribution: ChEMBL document CHEMBL1201861

tested on: NCI-H2291; assay: cells; type: functional, cell-based; details: Homo sapiens
Description: SANGER: Inhibition of human NCI-H2291 cell growth in a cell viability assay.
Give measured IC50 for each item. Keep answers brief.

CN(NC(=O)CC(=O)NN(C)C(=S)c1ccccc1)C(=S)c1ccccc1 [ELESCLOMOL]	> 200 nM

Kindly consider the entry below.
Which IC50 reading was recorded for the molecule CS(=O)(=O)N1CCN(Cc2cc3nc(-c4cccc5[nH]ncc45)nc(N4CCOCC4)c3s2)CC1 [PICTILISIB] ?
> 4000 nM

----------
tested on: SJRH30; experiment: cells; assay type: functional, cell-based; conditions: Homo sapiens;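 note: growth inhibition of human SJRH30 cells, read out with a cell viability assay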
Description: SANGER: Inhibition of human SJRH30 cell growth in a cell viability assay.
MEASUREMENT_KIND: IC50

Here's what some known entries look like.
OC[C@H](Cc1ccccc1)Nc1nc(Oc2ccc3c(c2)CCC3)nc2c1ncn2Cc1ccc(-c2ccccc2)cc1	> 10200 nM
CN(NC(=O)CC(=O)NN(C)C(=S)c1ccccc1)C(=S)c1ccccc1	100 nM
C/C(=C\c1csc(C)n1)[C@@H]1C[C@@H]2O[C@]2(C)CCC[C@H](C)[C@H](O)[C@@H](C)C(=O)C(C)(C)[C@@H](O)CC(=O)O1	12.9 nM
O=S(=O)(O)c1ccc2cc(/N=N/c3cc(S(=O)(=O)O)c4cccnc4c3O)ccc2c1	> 16000 nM
CO[C@@H]1[C@H](N(C)C(=O)c2ccccc2)C[C@H]2O[C@]1(C)n1c3ccccc3c3c4c(c5c6ccccc6n2c5c31)C(=O)NC4	> 512 nM

Would you mind listing IC50 for each of the following compounds?
1. CC1(C)CCC(c2ccc(Cl)cc2)=C(CN2CCN(c3ccc(C(=O)NS(=O)(=O)c4ccc(N[C@H](CCN5CCOCC5)CSc5ccccc5)c(S(=O)(=O)C(F)(F)F)c4)cc3)CC2)C1
2. O=C1NC(=O)c2c1c(-c1ccccc1Cl)cc1[nH]c3ccc(O)cc3c21

> 2000 nM
> 2000 nM

----------
system: NB13; test: cells; type: functional, cell-based, Homo sapiens; details: Homo sapiens, NB13;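 note: cell viability readout measuring growth inhibition of human NB13 cells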
Description: SANGER: Inhibition of human NB13 cell growth in a cell viability assay.
MEASUREMENT_KIND: IC50

Here's what some known entries look like.
COc1cc(N2CCC(N3CCN(C)CC3)CC2)ccc1Nc1ncc(Cl)c(Nc2ccccc2S(=O)(=O)C(C)C)n1	1370 nM
C[C@@H](Oc1cc(-c2cnn(C3CCNCC3)c2)cnc1N)c1c(Cl)ccc(F)c1Cl	> 2000 nM
OC[C@H](Cc1ccccc1)Nc1nc(Oc2ccc3c(c2)CCC3)nc2c1ncn2Cc1ccc(-c2ccccc2)cc1	8090 nM
COc1ccc(N(C(=O)Oc2c(C)cccc2C)c2ccnc(Nc3ccc(N4CCN(C)CC4)cc3)n2)c(OC)c1	> 5120 nM
Cc1cc(N2CCOCC2)cc2[nH]c(-c3c(NC[C@@H](O)c4cccc(Cl)c4)cc[nH]c3=O)nc12	> 5120 nM

Which IC50 reading was recorded for the molecule CC1(C)CCC(c2ccc(Cl)cc2)=C(CN2CCN(c3ccc(C(=O)NS(=O)(=O)c4ccc(N[C@H](CCN5CCOCC5)CSc5ccccc5)c(S(=O)(=O)C(F)(F)F)c4)cc3)CC2)C1 ?
82 nM

----------
Give measured IC50 for each item. Keep answers brief.
tested on: HEL; assay: cells; assay type: functional, cell-based, Homo sapiens; conditions: Homo sapiens, HEL
Description: SANGER: Inhibition of human HEL cell growth in a cell viability assay.
One number for each entry, in nM.

Nc1ccccc1NC(=O)c1ccc(CNC(=O)OCc2cccnc2)cc1 [ENTINOSTAT]	313
CCCCCCCCCCCC1=C(O)C(=O)C=C(O)C1=O [EMBELIN]	11200
CN(NC(=O)CC(=O)NN(C)C(=S)c1ccccc1)C(=S)c1ccccc1 [ELESCLOMOL]	7.08

Which IC50 reading was recorded for the compound OC[C@H](Cc1ccccc1)Nc1nc(Oc2ccc3c(c2)CCC3)nc2c1ncn2Cc1ccc(-c2ccccc2)cc1 ?
3280

----------
system: NCI-H2171; assay: cells; assay type: functional, cell-based, Homo sapiens; conditions: Homo sapiens, NCI-H2171;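 note: growth inhibition of human NCI-H2171 cells, read out by a cell viability assay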
Description: SANGER: Inhibition of human NCI-H2171 cell growth in a cell viability assay.
Give measured IC50 for each item. Keep answers brief.

COc1ccc(-c2cc3nccn3c(Nc3ncccc3C(N)=O)n2)cc1OC	> 8000 nM
C[C@@H](Oc1cc(-c2cnn(C3CCNCC3)c2)cnc1N)c1c(Cl)ccc(F)c1Cl	> 2000 nM
NC(=O)c1cccc(-c2cc(Nc3ccc(OC(F)(F)F)cc3)ncn2)c1	> 1280 nM
OC[C@H](Cc1ccccc1)Nc1nc(Oc2ccc3c(c2)CCC3)nc2c1ncn2Cc1ccc(-c2ccccc2)cc1	> 10200 nM
CC(C)C[C@H](NC(=O)[C@H](Cc1ccccc1)NC(=O)c1cnccn1)B(O)O	> 20 nM
COC(=O)[C@H](CCSC)NC(=O)c1ccc(NC[C@@H](N)CS)cc1-c1ccccc1	> 1020 nM

Kindly consider the entry below.
Which IC50 reading was recorded for the molecule Cc1ccc(NC(=O)c2ccc(CN3CCN(C)CC3)cc2)cc1Nc1nccc(-c2cccnc2)n1 ?
> 2000 nM

----------
system: SNU-C2B; assay: cells; assay type: functional, cell-based; conditions: Homo sapiens;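 note: cell viability readout used to measure compound-driven suppression of SNU-C2B cell proliferation, IC50 marking half-maximal growth inhibition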
Description: SANGER: Inhibition of human SNU-C2B cell growth in a cell viability assay.
MEASUREMENT_KIND: IC50

Would you mind listing IC50 for each of the following compounds?
1. COc1cc(N2CCC(N3CCN(C)CC3)CC2)ccc1Nc1ncc(Cl)c(Nc2ccccc2S(=O)(=O)C(C)C)n1 [TAE-684]
2. CN(NC(=O)CC(=O)NN(C)C(=S)c1ccccc1)C(=S)c1ccccc1 [ELESCLOMOL]
3. CC1(C)CCC(c2ccc(Cl)cc2)=C(CN2CCN(c3ccc(C(=O)NS(=O)(=O)c4ccc(N[C@H](CCN5CCOCC5)CSc5ccccc5)c(S(=O)(=O)C(F)(F)F)c4)cc3)CC2)C1 [NAVITOCLAX]

> 2000 nM
> 200 nM
> 2000 nM

----------
tested on: HT55; assay: cells; type: functional, cell-based; settings: Homo sapiens;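 note: cell viability readout measuring growth inhibition of human HT55 cells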
Description: SANGER: Inhibition of human HT55 cell growth in a cell viability assay.
MEASUREMENT_KIND: IC50

Here's what some known entries look like.
CS(=O)(=O)N1CCN(Cc2cc3nc(-c4cccc5[nH]ncc45)nc(N4CCOCC4)c3s2)CC1	> 4 µM
NC1(c2ccc(-c3nc4ccn5c(=O)[nH]nc5c4cc3-c3ccccc3)cc2)CCC1	> 4 µM
CCCCCCCCCCCC1=C(O)C(=O)C=C(O)C1=O	> 32 µM
O=S(=O)(O)c1ccc2cc(/N=N/c3cc(S(=O)(=O)O)c4cccnc4c3O)ccc2c1	> 16 µM

Which IC50 reading was recorded for the molecule C/C(=C\c1csc(C)n1)[C@@H]1C[C@@H]2O[C@]2(C)CCC[C@H](C)[C@H](O)[C@@H](C)C(=O)C(C)(C)[C@@H](O)CC(=O)O1 ?
> 0.032 µM

----------
test system: GAMG; assay: cells; assay type: functional, cell-based; conditions: Homo sapiens;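 note: cell growth inhibition measured by a viability assay in the GAMG human cell line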
Description: SANGER: Inhibition of human GAMG cell growth in a cell viability assay.
pIC50: −log10 of the molar value.
Give measured pIC50 for each item. Keep answers brief.

C/C(=C\c1csc(C)n1)[C@@H]1C[C@@H]2O[C@]2(C)CCC[C@H](C)[C@H](O)[C@@H](C)C(=O)C(C)(C)[C@@H](O)CC(=O)O1	8.75

Would you mind listing pIC50 for each of the following compounds?
1. CC1(C)CCC(c2ccc(Cl)cc2)=C(CN2CCN(c3ccc(C(=O)NS(=O)(=O)c4ccc(N[C@H](CCN5CCOCC5)CSc5ccccc5)c(S(=O)(=O)C(F)(F)F)c4)cc3)CC2)C1
2. CN(C)CCOc1ccc(-c2nc(-c3ccncc3)c(-c3ccc4c(c3)CC/C4=N\O)[nH]2)cc1

1: < 5.70; 2: < 5.30

Which pIC50 reading was recorded for the compound OC[C@H](Cc1ccccc1)Nc1nc(Oc2ccc3c(c2)CCC3)nc2c1ncn2Cc1ccc(-c2ccccc2)cc1 ?
< 4.99

----------
Give measured IC50 for each item. Keep answers brief.
tested on: RPMI-8226; assay: cells; assay type: functional, cell-based, Homo sapiens; conditions: Homo sapiens, RPMI-8226
Description: SANGER: Inhibition of human RPMI-8226 cell growth in a cell viability assay.

Here's what some known entries look like.
CCCCCCCCCCCC1=C(O)C(=O)C=C(O)C1=O	13.7 µM
NC(=O)c1cccc(-c2cc(Nc3ccc(OC(F)(F)F)cc3)ncn2)c1	> 1.28 µM
CC1(C)CCC(c2ccc(Cl)cc2)=C(CN2CCN(c3ccc(C(=O)NS(=O)(=O)c4ccc(N[C@H](CCN5CCOCC5)CSc5ccccc5)c(S(=O)(=O)C(F)(F)F)c4)cc3)CC2)C1	0.457 µM
CN(C)CCOc1ccc(-c2nc(-c3ccncc3)c(-c3ccc4c(c3)CC/C4=N\O)[nH]2)cc1	> 5 µM
O=S(=O)(O)c1ccc2cc(/N=N/c3cc(S(=O)(=O)O)c4cccnc4c3O)ccc2c1	> 16 µM

Would you mind listing IC50 for each of the following compounds?
1. OC[C@H](Cc1ccccc1)Nc1nc(Oc2ccc3c(c2)CCC3)nc2c1ncn2Cc1ccc(-c2ccccc2)cc1
2. O=C(NCCCNc1nc(Nc2cccc(NC(=O)N3CCCC3)c2)ncc1I)c1cccs1

> 10.2 µM
> 5 µM

Would you mind listing IC50 for each of the following compounds?
1. O=C1NC(=O)c2c1c(-c1ccccc1Cl)cc1[nH]c3ccc(O)cc3c21
2. C/C(=C\c1csc(C)n1)[C@@H]1C[C@@H]2O[C@]2(C)CCC[C@H](C)[C@H](O)[C@@H](C)C(=O)C(C)(C)[C@@H](O)CC(=O)O1

> 2 µM
0.00671 µM

Which IC50 reading was recorded for the compound CS(=O)(=O)N1CCN(Cc2cc3nc(-c4cccc5[nH]ncc45)nc(N4CCOCC4)c3s2)CC1 ?
> 4 µM
